B1: Cytochrome b5, P00171 (parent)
chain: MAEESSKAVKYYTLEEIQKHNNSKSTWLILHYKVYDLTKFLEEHPGGEEVLREQAGGDATENFEDVGHSTDARELSKTFIIGELHPDDRSKITKPSESIITTIDSNPSWWTNWLIPAISALFVALIYHLYTSEN

variants of: B1; details: Bos taurus; pH 7; Thermal; Absorbance; Sodium phosphate 100 mM; structure 1CYO; whole UniProt chain shown
MEASURED PARAMETER: Tm
Reply with the number and its unit after it.

The following variants have reported results that may help.
• MAEESSKAVKYYTLEEIQKHNNSKSTWLILHYKVYDLTKFLEEHPGGEEVLREQAGGDATENFEDEGHSTDARELSKTFIIGELHPDDRSKITKPSESIITTIDSNPSWWTNWLIPAISALFVALIYHLYTSEN [V66E] = 63.2 °C
• MAEESSKAVKYYTLEEIQKHNNSKSTWLILHYKVYDLTKFLEEHPGGEEVLREQAGGDATENFEDYGHSTDARELSKTFIIGELHPDDRSKITKPSESIITTIDSNPSWWTNWLIPAISALFVALIYHLYTSEN [V66Y] = 62.5 °C
• MAEESSKAVKYYTLEEIQKHNNSKSTWLILHYKVYDLTKFLEEHPGGEEVLREQAGGDATENFEDHGHSTDARELSKTFIIGELHPDDRSKITKPSESIITTIDSNPSWWTNWLIPAISALFVALIYHLYTSEN [V66H] = 61.3 °C

Problem: Look up and report measured Tm for this entry: MAEESSKAVKYYTLEEIQKHNNSKSTWLILHYKVYDLTKFLEEHPGGEEVLREQAGGDATENFEDKGHSTDARELSKTFIIGELHPDDRSKITKPSESIITTIDSNPSWWTNWLIPAISALFVALIYHLYTSEN [V66K]
Result: 58.5 °C
